Biological target: recombinant human PAI-1 (Homo sapiens)
Construct: purchased Molecular Innovations, Inc
Sequence (P05121 24-402): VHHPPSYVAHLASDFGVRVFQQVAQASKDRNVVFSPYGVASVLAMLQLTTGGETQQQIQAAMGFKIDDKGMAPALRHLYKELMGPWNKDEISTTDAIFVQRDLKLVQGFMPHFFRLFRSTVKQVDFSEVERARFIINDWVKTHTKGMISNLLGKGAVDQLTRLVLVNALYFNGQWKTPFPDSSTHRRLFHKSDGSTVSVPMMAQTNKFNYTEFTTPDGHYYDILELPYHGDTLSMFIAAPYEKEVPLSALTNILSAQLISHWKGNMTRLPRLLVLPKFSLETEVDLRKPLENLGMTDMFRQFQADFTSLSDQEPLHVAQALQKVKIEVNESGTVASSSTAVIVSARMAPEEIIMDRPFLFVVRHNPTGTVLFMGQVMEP
Test: Test Example 2: human PAI-1 inhibitory activity (tPA fluorogenic substrate, pH 7.4 HEPES buffer)
Assay type: biochemical
Settings: human PAI-1; compound concentration 10 μM
outcome.measure: Inhibition Rate of PAI-1 Activity (%)

- molecule: "CC(C)(C)c1ccc(N(Cc2ccc(-c3ccccc3)cc2)C(=O)C(=O)O)cc1 [Compound 612]"
  units: "%"
  Inhibition Rate of PAI-1 Activity (%): 84

(I) CC(C)(C)c1ccc(CN(C(=O)CC(=O)O)c2ccc(-c3ccc(OC(F)(F)F)cc3)cc2)cc1 [Compound 608]
(II) O=C(O)C(=O)N(Cc1ccc(-c2ccc(OC(F)(F)F)cc2)cc1)c1ccccc1 [Compound 611]
Req: # query: argmin of Inhibition Rate of PAI-1 Activity (%) over I and II Identify your pick by its label.
Resp: II
(II: 45%, I: 95%)

Reference source for all entries: patent US8633245B2
